Biological target: UniProt:P03956
Sequence (P03956 100-469): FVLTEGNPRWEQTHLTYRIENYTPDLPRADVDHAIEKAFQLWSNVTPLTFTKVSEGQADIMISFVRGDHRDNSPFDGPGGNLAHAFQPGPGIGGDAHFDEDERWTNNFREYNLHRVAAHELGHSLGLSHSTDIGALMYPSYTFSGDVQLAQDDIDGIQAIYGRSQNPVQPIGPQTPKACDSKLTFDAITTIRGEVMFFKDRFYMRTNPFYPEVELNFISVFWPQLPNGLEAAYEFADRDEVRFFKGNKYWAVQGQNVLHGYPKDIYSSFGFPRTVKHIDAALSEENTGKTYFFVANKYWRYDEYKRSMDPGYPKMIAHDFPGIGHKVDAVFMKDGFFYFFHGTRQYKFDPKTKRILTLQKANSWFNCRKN
Test: MMP inhibition by particle concentration fluorescence technique (collagenase)
Type: biochemical
Conditions: pH 7.5; 15 min enzyme preincubation; substrate 1-3 h at room temperature; read-out: MMP Inhibition Constants, Collagenase Ki
QUANTITY: pKi
// pKi is dimensionless: -log10 of concentration (M)

Given the compound `CC(C)C[C@@]1(CC(=O)NO)CCN([C@@H](Cc2ccccc2)C(=O)Nc2ccccn2)C1=O` , write its reported pKi.
7.92

Recall and state the measured pKi for CC(C)C[C@@]1([C@@H](CCCN2C(=O)c3ccccc3C2=O)C(=O)NO)CCN(CCc2ccccc2)C1=O (relative stereo) .
4.67

Specify measured pKi for CC(C)C[C@@]1([C@H](CCN2C(=O)c3ccccc3C2=O)C(=O)NO)CCN(CCc2ccc(F)cc2)C1=O (relative stereo) .
7.41

Tell me measured pKi for `CNC(=O)[C@H](CC(C)C)N1CC[C@](CC(=O)NO)(CC(C)C)C1=O` please.
7.44

Please report pKi for the following compound: CC(C)C[C@@]1([C@@H](CCNC(=O)c2ccc(-c3ccccc3)cc2)C(=O)NO)CCN(CCc2ccccc2)C1=O (relative stereo)
6.47

Please report pKi for the following compound: O=C(NCC[C@@H](C(=O)NO)[C@]1(CCCO)CCN(CCc2ccccc2)C1=O)c1ccc(F)c(F)c1 (relative stereo)
7.87

Identify measured pKi associated with CC(C)C[C@@]1([C@@H](CCNC(=O)c2ccc(F)cc2)C(=O)NO)CCN(CCc2ccccc2)C1=O (relative stereo)
7.13

For `CC(C)C[C@@]1(CC(=O)NO)CCN([C@@H](Cc2ccccc2)C(=O)Nc2ccncc2)C1=O` , write its pKi.
8.55

Read off the recorded pKi for `CC(C)C[C@@]1(CC(=O)NO)CCN([C@@H](Cc2ccccc2)C(=O)Nc2ccc(F)cc2)C1=O`
8.61

// fetch pKi given entry `CC(C)C[C@@]1(CC(=O)NO)CCN([C@@H](Cc2ccccc2)C(=O)NC2CCNCC2)C1=O`
7.69

Using known records, supply pKi for CC(C)C[C@@]1([C@@H](CCN2Cc3ccccc3C2=O)C(=O)NO)CCN(CCc2ccccc2)C1=O (relative stereo)
6.19

Provide pKi value for the following compound: CC(C)C[C@@]1([C@H](NS(=O)(=O)c2ccc(F)cc2)C(=O)NO)CCN(CCc2ccccc2)C1=O (relative stereo)
7.01

###

Molecular target: Gelatinase
Experiment: MMP inhibition by particle concentration fluorescence technique (gelatinase)
Conditions: pH 7.5; 15 min enzyme preincubation; substrate 1-3 h at room temperature; read-out: MMP Inhibition Constants, Gelatinase Ki
QUANTITY: pKi
// scale note: pKi = -log10(conc_M); give the bare number

Please indicate pKi recorded for CC(C)C[C@@]1([C@@H](CCN2C(=O)c3ccccc3C2=O)C(=O)NO)CCN(Cc2ccccc2)C1=O (relative stereo)
5.89

Read the entry CC(C)C[C@@]1([C@@H](CCN2C(=O)c3cc4ccccc4cc3C2=O)C(=O)NO)CCN(CCc2ccccc2)C1=O (relative stereo) and write its reported pKi.
7.09

Give the reported pKi for this compound. `CC(C)C[C@@]1(CC(=O)NO)CCN([C@@H](Cc2ccccc2)C(=O)NCc2ccc(F)cc2)C1=O`
7.40

Give recorded pKi. CC(C)C[C@@]1([C@@H](CCN2Cc3ccccc3C2=O)C(=O)NO)CCN(CCc2ccccc2)C1=O (relative stereo)
7.34

Provide only the value of recorded pKi for CC(C)C[C@@]1(CC(=O)NO)CCN([C@H](C(=O)NCC2CC2)C2CCCCC2)C1=O (relative stereo)
7.96

For CC(C)C[C@@]1([C@@H](CCN2C(=O)c3ccc(N)cc3C2=O)C(=O)NO)CCN(CCc2ccccc2)C1=O (relative stereo) , write its pKi.
6.11
